Reference source: patent US4636500A

target: thromboxane synthetase (Homo sapiens); construct: human platelet microsomes; test: Thromboxane A2 (TxA2) synthetase inhibition; Indomethacin pretreated human platelet microsomes, rabbit aorta superfusion bioassay; conditions: human platelet microsomes; 5 min pre-incubation; read-out: Molar concentration causing 50% inhibition of (1) thromboxane synthetase
Sequence (P24557 whole entry, the tested form may be a part): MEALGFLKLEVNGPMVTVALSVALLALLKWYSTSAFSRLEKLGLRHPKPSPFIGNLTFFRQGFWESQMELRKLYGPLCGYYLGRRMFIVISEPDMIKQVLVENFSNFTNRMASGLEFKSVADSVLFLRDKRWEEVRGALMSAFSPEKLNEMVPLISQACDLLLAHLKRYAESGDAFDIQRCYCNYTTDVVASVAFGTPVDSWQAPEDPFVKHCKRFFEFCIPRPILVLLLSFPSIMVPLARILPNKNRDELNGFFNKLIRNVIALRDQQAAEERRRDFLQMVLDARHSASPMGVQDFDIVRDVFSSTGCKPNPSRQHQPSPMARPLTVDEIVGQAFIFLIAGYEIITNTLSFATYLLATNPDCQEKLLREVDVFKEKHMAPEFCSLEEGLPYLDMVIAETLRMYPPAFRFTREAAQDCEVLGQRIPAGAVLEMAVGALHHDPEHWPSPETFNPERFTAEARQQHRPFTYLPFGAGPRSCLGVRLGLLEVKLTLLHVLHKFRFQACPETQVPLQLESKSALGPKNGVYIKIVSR
Counter-ions that a name gives are not always drawn.
RECORDED ENDPOINT: IC50 (nM)

Please review the following examples before continuing.
O=C(O)c1cccc(OCCn2ccnc2)c1 [Example 21, Hydrochloride]	12
NC(=O)Cc1ccc(OCCn2ccnc2)cc1	1000
NC(=O)Cc1ccccc1OCCn1ccnc1	6600
O=C(O)c1ccccc1OCCn1ccnc1 [Example 17, Hydrochloride]	34000

I = CCOC(=O)Cc1cccc(OCCn2ccnc2)c1
II = NC(=O)COc1ccc(OCCn2ccnc2)cc1
Query: # compare IC50 for I vs II ; return the one with the smaller value Write down the label attached to your selection.
Response: II
